Tested on: MDA-MB-435 melanoma
Experiment: NCI-60 one-dose screen, 48 h
Conditions: 10 µM unless noted
The panel holds about 83,000 compounds, 20% with a hit somewhere; the sample as a whole holds those more often. Calls of active or inactive are those of the source. Rule for the calls: active = growth percent below 10; inactive = the rest.
Output constraint: value belongs to yes = active, no = inactive

Please review the following examples before continuing.
O=C(/C=C1\C=CN(CCCCF)c2ccccc21)n1ccc2ccccc21 = no
CCOc1c(C#N)c(Nc2ccc(S(N)(=O)=O)cc2)c(C#N)c2nnc(C)n12 = no
O=C1c2c(c3c4ccc(Br)cc4oc3c3[nH]c4ccccc4c23)C(=O)N1CCO = no
COc1cc2cc(Oc3ccc(NC(=O)c4cccc(C(F)(F)F)c4)cc3)c(C)nc2cc1OCCN(C)C = yes
CN(C)c1ncc(/C=C2\SC(=S)N(Cc3ccccc3Cl)C2=O)s1 = no

*Q* Each molecule tested received a call. Report the one for COc1cc(C2CC(c3ccc(Nc4nc(NCCO)nc(Nc5ccc(Cl)cc5)n4)cc3)=Nc3c(N)nc(N)nc3N2)cc(OC)c1OC (centres undefined) .
*A* no

*Q* Please let me know the test result on file for `CS(=O)(=O)c1ccc2c(c1)c1c(n2Cc2ccc(Cl)cc2)CCCC1` .
*A* no

*Q* Recorded call for `O=[N+]([O-])c1ccc(-c2nnc(SCc3ccc(O)c4ncccc34)n2-c2ccccc2)cc1` ?
*A* no

*Q* What did this assay record as the result for `COc1cc(/C=N/Nc2ccnc3cc(Cl)ccc23)cc(OC)c1O` ?
*A* yes

###

Documented growth across a set of compounds
System: MOLT-4 leukemia
Experiment: NCI-60 one-dose screen, 48 h (100 = growth as untreated, 0 = no growth, -100 = all killed)
Conditions: 10 µM unless noted
About 83,000 compounds went through this panel and 20% of them were active in at least one assay; those are over-represented in the sample as a whole.
Please state the figure in %; there is no need to write the unit.

*Q* Please list growth recorded for the compound `COc1cc2cc(Oc3ccc(NC(=O)c4cccc(C(F)(F)F)c4)cc3)c(C)nc2cc1OCCN(C)C`
*A* 67.1

*Q* // fetch growth given entry CC(C)(C)n1nnnc1C(Nc1nccs1)c1cc2cccc3ccc4cccc1c4c32 (configuration not stated)
*A* 96.6

*Q* Give recorded growth. `C=C(C)[C@@H]1CC[C@]2(C(=O)NCCCN(CCC#N)CCC#N)CC[C@]3(C)[C@H](CC[C@@H]4[C@@]5(C)CCC(=O)C(C)(C)[C@@H]5CC[C@]43C)[C@@H]12`
*A* 88.1

*Q* Note down growth recorded for CN1C(=O)N(C)C2Nn3c(s/c(=C\c4ccccn4)c3=O)=NC21 (configuration not stated)
*A* 110

###

Test system: SW-620 colon
Assay: NCI-60 one-dose screen, 48 h
Conditions: 10 µM unless noted
The panel holds about 83,000 compounds, 20% with a hit somewhere; the sample as a whole holds those more often. The source made the active and inactive calls. How the source made its calls: active means growth percent below 10; inactive means the rest.
Permitted responses: active, inactive

CC(=O)NC(C)(C)C(=O)N[C@@H](C)C(=O)NC(C)(C)C(=O)N[C@@H](C)C(=O)NC(C)(C)C(=O)N[C@@H](C)C(=O)N[C@@H](CCC(N)=O)C(=O)NC(C)(C)C(=O)N[C@H](C(=O)NC(C)(C)C(=O)NCC(=O)N[C@@H](CC(C)C)C(=O)NC(C)(C)C(=O)N1CCC[C@H]1C(=O)N[C@H](C(=O)NC(C)(C)C(=O)NC(C)(C)C(=O)N[C@@H](CCC(N)=O)C(=O)N[C@@H](CCC(N)=O)C(=O)N[C@H](CO)CC1CCCCC1)C(C)C)C(C)C = inactive
CCOC(=O)C1=C(C)N=C2Sc3ccccc3N2C1c1ccccc1 (stereo unspecified) = inactive
O=[N+]([O-])c1ccc(-c2nnc(SCc3ccc(O)c4ncccc34)o2)cc1 = inactive
O=C1c2c(c3c4cccnc4[nH]c3c3ccc4ccccc4c23)C(=O)N1CCN1CCNCC1 = inactive
Cc1ccc(S(=O)(=O)N/N=C/c2cn(-c3ccc(F)cc3)nc2-c2ccc(S(C)(=O)=O)cc2)cc1 = inactive
CN1CCN(c2ccc3c(C(N)=O)c(NC(=O)c4ccc(C(C)(C)C)cc4)sc3c2)CC1 = inactive

*Q* How was `CCCCCCCCNC(=O)c1ccc(Cn2c(CCCC)nc3c(N)nc4ccccc4c32)cc1` classified in this test?
*A* active

*Q* What was the test verdict on `COc1ccc([C@@H]2[C@@H](O)C(=O)N2c2cc(OC)c(OC)c(OC)c2)cc1Cl` ?
*A* inactive

*Q* # lookup: test call for `CC(=O)Oc1ccc(CCN2C(=O)CSC2=S)cc1`
*A* inactive

*Q* Please let me know the test result on file for `COc1cc(-c2noc(C[C@@H](NC(=O)OCc3ccccc3)C(C)C)n2)cc(OC)c1OC` .
*A* inactive

*Q* Hi, do you know how `CCOP(=O)(OCC)OC[C@]12CCC(C)(C)C[C@H]1C1=CC[C@@H]3[C@@]4(C)C/C(=C\c5cccnc5)[C@H](OP(=O)(OCC)OCC)C(C)(C)[C@@H]4CC[C@@]3(C)[C@]1(C)CC2` came out in this test?
*A* inactive

*Q* Please state the recorded outcome for this molecule: `COc1cc(/C=N/Nc2ccnc3cc(Cl)ccc23)cc(OC)c1O`
*A* active

*Q* Write down the call the test reported for this molecule. Item: `CN1CCN(Cc2ccc(NC(=O)c3cncc(C#Cc4cnc5ccc(NC6CCOCC6)nn45)c3)cc2C(F)(F)F)CC1`
*A* active

*Q* Outcome logged for `N#Cc1c(-c2cccs2)cc(-c2cnccn2)nc1SCC(=O)NNC(=S)Nc1ccc(F)cc1` in this assay:
*A* inactive

These entries and their values trace back to PubChem BioAssay (NCI).
